These measurements were taken from paper PMC10073911.

Target: urease (Canavalia ensiformis, UniProt P07374)
Sequence (P07374 whole entry, looked up): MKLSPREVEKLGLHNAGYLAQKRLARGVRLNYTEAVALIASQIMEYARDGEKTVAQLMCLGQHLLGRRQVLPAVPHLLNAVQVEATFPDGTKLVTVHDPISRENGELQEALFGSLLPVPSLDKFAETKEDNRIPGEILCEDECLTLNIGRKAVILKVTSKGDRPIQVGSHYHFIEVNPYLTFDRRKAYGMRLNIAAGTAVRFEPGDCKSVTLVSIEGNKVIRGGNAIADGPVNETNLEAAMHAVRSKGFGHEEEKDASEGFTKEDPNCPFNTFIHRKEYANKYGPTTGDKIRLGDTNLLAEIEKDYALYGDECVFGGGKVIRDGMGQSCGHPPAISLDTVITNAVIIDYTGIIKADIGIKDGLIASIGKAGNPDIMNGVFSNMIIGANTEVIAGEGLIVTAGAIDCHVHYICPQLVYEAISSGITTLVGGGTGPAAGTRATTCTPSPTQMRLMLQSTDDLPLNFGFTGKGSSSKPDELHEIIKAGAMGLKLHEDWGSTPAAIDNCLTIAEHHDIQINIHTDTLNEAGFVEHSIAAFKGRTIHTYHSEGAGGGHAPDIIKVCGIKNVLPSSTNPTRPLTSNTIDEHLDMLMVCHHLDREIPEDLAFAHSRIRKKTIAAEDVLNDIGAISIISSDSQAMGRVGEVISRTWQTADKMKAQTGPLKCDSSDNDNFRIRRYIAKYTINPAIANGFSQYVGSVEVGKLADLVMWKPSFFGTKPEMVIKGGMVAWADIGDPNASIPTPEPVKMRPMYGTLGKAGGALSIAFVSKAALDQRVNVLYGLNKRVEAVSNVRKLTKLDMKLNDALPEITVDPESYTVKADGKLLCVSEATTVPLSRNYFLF
Assay: biochemical
Conditions: urease inhibition IC50 ± s.e.m., indophenol method, urea substrate 100 mM, absorbance at 630 nm, triplicate
quantity kind: IC50 (µM)
Give just the number in µM; leave the unit off.

Below, each entry is followed by its recorded IC50 result.
compound: COC(=O)C1=C(O)c2ccccc2S(=O)(=O)N1CC(=O)Nc1ccc(C)cc1 [5h]
readout unit: µM
measured value: 16.4
--
compound: COC(=O)C1=C(O)c2ccccc2S(=O)(=O)N1CC(=O)Nc1ccc([N+](=O)[O-])cc1 [5j]
readout unit: µM
measured value: 17.1
--
compound: COC(=O)C1=C(O)c2ccccc2S(=O)(=O)N1CC(=O)Nc1ccccc1C [5c]
readout unit: µM
measured value: 17.2
--
compound: CCOC(=O)c1ccc(NC(=O)CN2C(C(=O)OC)=C(O)c3ccccc3S2(=O)=O)cc1 [5k]
readout unit: µM
measured value: 9.8
--
compound: COC(=O)C1=C(O)c2ccccc2S(=O)(=O)N1CC(=O)Nc1ccccc1 [5a]
readout unit: µM
measured value: 10.1
--
compound: COC(=O)C1=C(O)c2ccccc2S(=O)(=O)N1CC(=O)Nc1cccc(C)c1 [5f]
readout unit: µM
measured value: 15.5
--
compound: COC(=O)C1=C(O)c2ccccc2S(=O)(=O)N1CC(=O)Nc1ccc(NC(C)=O)cc1 [5l]
readout unit: µM
measured value: 12.6
--
compound: COC(=O)C1=C(O)c2ccccc2S(=O)(=O)N1CC(=O)Nc1ccc(OC)cc1 [5g]
readout unit: µM
measured value: 20.4
--
compound: COC(=O)C1=C(O)c2ccccc2S(=O)(=O)N1CC(=O)Nc1ccc(Cl)cc1 [5i]
readout unit: µM
measured value: 20.7
--
compound: COC(=O)C1=C(O)c2ccccc2S(=O)(=O)N1CC(=O)Nc1ccccc1OC [5b]
readout unit: µM
measured value: 14.9

# ---- query compound ----
Short answer for COC(=O)C1=C(O)c2ccccc2S(=O)(=O)N1CC(=O)Nc1ccccc1C(=O)OC [5d] : IC50 was 14.1
